- assay: Permeability test on Caco2 cells
- Type: in vitro ADME
- reported_conditions: human, Caco-2, AP→BL, single replicate; read-out: Papp
property_name: Papp at 120 min (nm/s)
Please state the figure in nm/s; there is no need to write the unit.

- molecule: "COCCc1ccc(OCC(O)CNC(C)C)cc1 (centres unmarked)"
  unit_annotation: "nm/s"
  Papp at 120 min: 178

Now look at this entry.
Q) Let me know recorded Papp at 120 min for O=C1OC2(c3ccc(O)cc3Oc3cc(O)ccc32)c2ccccc21 , thanks.
A) 3.64

* * *

- assay: Mouse plasma pharmacokinetic test
- Type: in vivo, CD-1 mice
- reported_conditions: CD-1, mouse, plasma; VT103 in mice, 7 mg/kg oral/IG; read-out: plasma drug concentration after 24 hours C24h
property_name: concentration at 24 h (ng/mL)
Please state the figure in ng/mL; there is no need to write the unit.

Q) Let me know recorded concentration at 24 h for CNS(=O)(=O)c1ccc(Nc2ccc(C(F)(F)F)cc2)c(-c2cn(C)cn2)c1 [VT103, reference compound] , thanks.
A) 340

* * *

- target_system: recombinant TEAD3 protein (218-435, Uniprot ID: Q99594) (Homo sapiens (Human))
- Sequence (Q99594 218-435): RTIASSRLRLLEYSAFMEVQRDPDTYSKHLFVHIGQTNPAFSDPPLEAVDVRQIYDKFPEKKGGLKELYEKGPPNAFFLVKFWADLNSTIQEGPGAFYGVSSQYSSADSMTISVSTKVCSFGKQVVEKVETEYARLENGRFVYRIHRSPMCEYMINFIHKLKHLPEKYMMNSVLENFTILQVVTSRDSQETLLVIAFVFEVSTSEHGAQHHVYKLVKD
- assay: Thermal shift assay (protein melting point curve), TEAD3
- Type: binding
- reported_conditions: 10 μM TEAD protein, 50 μM test compound
property_name: Δ T m (TEAD3)

Recorded results for 5 molecules are shown here.
- molecule: "CP(C)(=O)c1ccc(Nc2ccc(C(F)(F)F)cc2)c(-n2cc(C3CCOCC3)cn2)c1"
  result_value: "+"
- molecule: "CP(C)(=O)c1ccc(NCc2ccc(C(F)(F)F)cc2)c(-c2nccc(N3CCC(O)C3)n2)c1 (centres unmarked)"
  result_value: "+"
- molecule: "CP(C)(=O)c1cnc(Nc2ccc(C(F)(F)F)cc2)c(-c2nccc(OC3COC3)n2)c1"
  result_value: "+"
- molecule: "CP(C)(=O)c1ccc(Nc2ccc(C(F)(F)F)cc2)c(-c2cnn(CC3COC3)c2)c1"
  result_value: "++"
- molecule: "CP(C)(=O)c1ccc(Nc2ccc(C(F)(F)F)cc2)c(-c2cn(C3COC3)nn2)c1"
  result_value: "++"

Q) Let me know recorded Δ T m (TEAD3) for Cn1cnc(-c2cc(P(C)(C)=O)ccc2NC2CCC(C(F)(F)F)CC2)c1 (centres unmarked) , thanks.
A) +

Q) Let me know recorded Δ T m (TEAD3) for CP(C)(=O)c1ccc(Nc2ccc(C(F)(F)F)cc2)c(-c2ncn3ccccc23)c1 , thanks.
A) ++

Q) Let me know recorded Δ T m (TEAD3) for Cc1nc(-c2cc(P(C)(C)=O)ccc2NCc2ccc(C(F)(F)F)cc2)no1 , thanks.
A) ++

* * *

- target_system: recombinant TEAD4 protein central pocket (Homo sapiens (Human), UniProt Q15561)
- Sequence (Q15561 whole entry): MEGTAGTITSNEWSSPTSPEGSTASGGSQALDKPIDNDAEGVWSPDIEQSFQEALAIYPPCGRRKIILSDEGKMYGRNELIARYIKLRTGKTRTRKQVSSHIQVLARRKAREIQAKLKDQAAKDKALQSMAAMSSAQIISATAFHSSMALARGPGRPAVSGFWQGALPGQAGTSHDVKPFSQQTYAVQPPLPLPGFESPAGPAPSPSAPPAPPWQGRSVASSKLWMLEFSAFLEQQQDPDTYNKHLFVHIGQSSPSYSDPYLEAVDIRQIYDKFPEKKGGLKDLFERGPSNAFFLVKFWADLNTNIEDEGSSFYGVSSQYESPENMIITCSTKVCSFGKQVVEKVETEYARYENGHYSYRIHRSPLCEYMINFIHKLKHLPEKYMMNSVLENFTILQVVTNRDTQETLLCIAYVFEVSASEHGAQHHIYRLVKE
- assay: Competitive thiol binding assay (CPM assay), TEAD4
- reported_conditions: 150 nM recombinant TEAD protein, 150 nM CPM
# Lookup of reported pIC50 keyed by entry
// returns pIC50 (minus log10 of molar concentration), number only

Recorded results for 3 molecules are shown here.
- molecule: "CCP(=O)(CC)c1ccc(Nc2ccc(C(F)(F)F)cc2)c(-c2cn(C)cn2)c1"
  result_value: 6.66
- molecule: "O=P1(c2ccc(Nc3ccc(C(F)(F)F)cc3)c(-c3ncccn3)c2)CC(CO)C1 (centres unmarked)"
  result_value: 6.96
- molecule: "CNS(=O)(=O)c1ccc(Nc2ccc(C(F)(F)F)cc2)c(-c2cn(C)cn2)c1 [VT103, reference compound]"
  result_value: 5.60

Q) Let me know recorded pIC50 for CP(C)(=O)c1ccc(Nc2ccc(C(F)(F)F)cc2)c(-c2nc(OC3COC3)cs2)c1 , thanks.
A) 6.60

Q) Let me know recorded pIC50 for CP(C)(=O)c1ccc(Nc2ccc(C(F)(F)F)cc2)c(-c2nccc(OC3CCOC3)n2)c1 (centres unmarked) , thanks.
A) 6.68

Q) Let me know recorded pIC50 for CP(C)(=O)c1cc(-c2nccc(OC3COC3)n2)c(Nc2ccc(C(F)(F)F)cc2)s1 , thanks.
A) 6.54

Q) Let me know recorded pIC50 for CP(C)(=O)c1ccc(NC2CCC(F)(F)CC2)c(-c2nccc(OC3COC3)n2)c1 , thanks.
A) 6.09

Q) Let me know recorded pIC50 for CP(C)(=O)c1ccc(Nc2ccc(S(F)(F)(F)(F)F)cc2)c(-c2nccc(OC3COC3)n2)c1 , thanks.
A) 6.68

* * *

- assay: Mouse plasma pharmacokinetic test
- Format: in vivo, CD-1 mice
- reported_conditions: CD-1, mouse, plasma; VT103 in mice, IV; read-out: VSS
property_name: Vd (L/kg)
Please state the figure in L/kg; there is no need to write the unit.

Q) Let me know recorded Vd for CNS(=O)(=O)c1ccc(Nc2ccc(C(F)(F)F)cc2)c(-c2cn(C)cn2)c1 [VT103, reference compound] , thanks.
A) 4.5

* * *

- target_system: recombinant TEAD4 protein (217-434, Uniprot ID: Q15561) (Homo sapiens (Human), UniProt Q15561)
- assay: Thermal shift assay (protein melting point curve), TEAD4
- Format: binding
- reported_conditions: 10 μM TEAD protein, 50 μM test compound
property_name: Δ T m (TEAD4)

Recorded results for 10 compounds are shown here.
- compound: "O=P1(c2ccc(Nc3ccc(C(F)(F)F)cc3)c(-c3nccc(OC4COC4)n3)c2)CCNCC1"
  Δ T m (TEAD4): "++"
- compound: "CP(C)(=O)c1ccc(Nc2ccc(S(F)(F)(F)(F)F)cc2)c(-c2nccc(OC3COC3)n2)c1"
  Δ T m (TEAD4): "++++"
- compound: "CP(C)(=O)c1ccc(Nc2ccc(C(F)(F)F)cc2)c(-c2cn(Cc3ccccn3)cn2)c1"
  Δ T m (TEAD4): "++"
- compound: "CP(C)(=O)c1ccc(Nc2ccc(C(F)(F)F)cc2)c(-c2cn(C3COC3)nn2)c1"
  Δ T m (TEAD4): "+++"
- compound: "Cc1nc(-c2cc(P(C)(C)=O)ccc2NCc2ccc(C(F)(F)F)cc2)no1"
  Δ T m (TEAD4): "++++"
- compound: "CP(C)(=O)c1ccc(NCc2ccc(C(F)(F)F)cc2)c(-c2nccc(N3CCC(O)C3)n2)c1 (centres unmarked)"
  Δ T m (TEAD4): "++"
- compound: "CP(C)(=O)c1ccc(Nc2ccc(C(F)(F)F)cc2)c(-c2ccn(C3CCOCC3)n2)c1"
  Δ T m (TEAD4): "++"
- compound: "CP(C)(=O)c1ccc(Nc2ccc(C(F)(F)F)cc2)c(-c2nccc(OCCO)n2)c1"
  Δ T m (TEAD4): "+"
- compound: "CP(C)(=O)c1ccc(NC23CCC(CC2)CC3)c(-c2nccc(OC3COC3)n2)c1"
  Δ T m (TEAD4): "+++"
- compound: "CP(C)(=O)c1ccc(NCc2cccc(C(F)(F)F)c2)c(-c2nccc(OC3COC3)n2)c1"
  Δ T m (TEAD4): "++"

Q) Let me know recorded Δ T m (TEAD4) for CP(C)(=O)c1ccc(NCc2ccc(C(F)(F)F)cc2)c(-c2nccc(OC3COC3)n2)c1 , thanks.
A) ++

Q) Let me know recorded Δ T m (TEAD4) for CP(C)(=O)c1ccc(Nc2ccc(C(F)(F)F)cc2)c(-c2nc(OC3COC3)cs2)c1 , thanks.
A) ++++

Q) Let me know recorded Δ T m (TEAD4) for CP(C)(=O)c1cnc(Nc2ccc(C(F)(F)F)cc2)c(-c2nccc(OC3COC3)n2)c1 , thanks.
A) ++

Q) Let me know recorded Δ T m (TEAD4) for CP(C)(=O)c1ccc(Nc2ccc(Br)cc2)c(-c2nccc(OC3COC3)n2)c1 , thanks.
A) ++++

Q) Let me know recorded Δ T m (TEAD4) for CP(C)(=O)c1ccc(Nc2ccc(C(F)(F)F)cc2)c(-c2nnc(COC3COC3)o2)c1 , thanks.
A) +

Q) Let me know recorded Δ T m (TEAD4) for CP(C)(=O)c1ccc(Nc2ccc(C(F)(F)F)cc2)c(-c2ncn3ccccc23)c1 , thanks.
A) ++

* * *

- target_system: recombinant TEAD4 protein (217-434, Uniprot ID: Q15561) (Homo sapiens (Human), UniProt Q15561)
- assay: Thermal shift assay (protein melting point curve), TEAD4
- Format: binding
- reported_conditions: 10 μM TEAD protein, 50 μM test compound
property_name: Δ T m (TEAD4)

Recorded results for 6 molecules are shown here.
- molecule: "CC1OCCC1S(=O)(=O)c1csc(-c2cc(P(C)(C)=O)ccc2Nc2ccc(C(F)(F)F)cc2)n1 (centres unmarked)"
  result_value: "+"
- molecule: "CP(C)(=O)c1ccc(OCc2ccc(C(F)(F)F)cc2)c(-c2nccc(OC3COC3)n2)c1"
  result_value: "++"
- molecule: "CP(C)(=O)c1ccc(NCc2cc(F)cc(F)c2)c(-c2ncccn2)c1"
  result_value: "++"
- molecule: "CP(C)(=O)c1ccc(Nc2ccc(C(F)(F)F)cc2)c(-c2nccc(OC3CCOC3)n2)c1 (centres unmarked)"
  result_value: "+++"
- molecule: "CP(C)(=O)c1ccc(Nc2cccc(C(F)(F)F)c2)c(-c2nccc(OC3COC3)n2)c1"
  result_value: "+"
- molecule: "CP(C)(=O)c1ccc(Nc2ccc(C(F)(F)F)cc2)c(-c2cnn(C3COC3)c2)c1"
  result_value: "+++"

Q) Let me know recorded Δ T m (TEAD4) for COCc1cccn(-c2cc(P(C)(C)=O)ccc2Nc2ccc(C(F)(F)F)cc2)c1=O , thanks.
A) +

Q) Let me know recorded Δ T m (TEAD4) for CP(C)(=O)c1ccc(NCc2ccc(C(F)(F)F)cc2)c(-c2cnn(C3COC3)c2)c1 , thanks.
A) ++

Reference source: patent US20260055126A1
